test: physchem; conditions: octan-1-ol/water, pH 7.4, LogD7.4
Recorded logD values for a group of compounds are listed next.
Just the number, please, no unit attached.

>>> numeric_readout("c1ccc2[nH]c(CCc3nc4ccccc4[nH]3)nc2c1")
3.3
>>> numeric_readout("Cc1cc(-c2ccc(-c3nc4ccncc4c(O)c3C#N)cc2)ccn1")
1.6
>>> numeric_readout("O=C(NC1Cc2ccccc2N(CC(CO)CO)C1=O)c1cc2cc(Cl)ccc2[nH]1 (configuration not stated)")
3.64
>>> numeric_readout("Nc1ccc(OCc2ccccc2)cc1")
2.2
>>> numeric_readout("CCNCc1cnc(-c2ccc(C(=O)Nc3ccccc3N)cc2)s1")
0.95
>>> numeric_readout("CC1N=C(N)N=C(N)N1c1ccc(Cl)cc1 (configuration not stated)")
-0.8

# logD lookup, item Cc1c(N)cccc1Cn1ccc(OCCc2cccs2)cc1=O 2.78

# logD lookup, item Cc1noc(C)c1CCC1CCN(S(=O)(=O)CC2(N(O)C=O)CCOCC2)CC1 0.9

# logD lookup, item COc1cccc(NC(=O)c2cccc(Cc3c(C)nn(CCO)c3-c3ccccc3)c2)c1 4.29

# logD lookup, item CC(C)(CS(=O)(=O)N1CCN(c2ccc(F)cc2)CC1)N(O)C=O 1.07

# logD lookup, item Cn1sc(NCc2ccccc2)nc1=O 1.2

# logD lookup, item CCCC(C)(C)C[C@H](c1ccc(C(=O)O)c(Oc2cccc(Cl)c2)c1)N1CCC[C@H](n2cc(C)c(=O)[nH]c2=O)C1 1.99

# logD lookup, item C[C@@H]1CN(c2noc(C(F)(F)F)n2)CCN1c1ncc(OCc2ccncc2C#N)cn1 3.95
